target: D(3) dopamine receptor (Homo sapiens); test: Displacement of [3H]N-methylspiperone from human dopamine D3 receptor by PDSP assay; conditions: read-out: Ki
Sequence (P35462 whole entry): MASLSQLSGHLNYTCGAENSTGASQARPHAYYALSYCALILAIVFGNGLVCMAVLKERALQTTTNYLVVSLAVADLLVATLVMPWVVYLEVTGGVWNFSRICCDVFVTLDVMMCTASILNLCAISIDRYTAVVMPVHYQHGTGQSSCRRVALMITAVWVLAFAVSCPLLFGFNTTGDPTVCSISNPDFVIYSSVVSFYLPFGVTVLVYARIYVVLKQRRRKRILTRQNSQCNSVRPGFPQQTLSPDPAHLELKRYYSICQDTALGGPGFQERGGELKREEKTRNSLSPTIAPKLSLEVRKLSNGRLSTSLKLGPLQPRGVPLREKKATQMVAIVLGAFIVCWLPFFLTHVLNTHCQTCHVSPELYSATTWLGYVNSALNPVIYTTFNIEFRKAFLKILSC
pKi: −log10 of the molar value.
Think of 7 as a floor: if pKi stands on it or above, it is 1 (yes); beneath it, 0 (no).

Q: Does the compound Clc1ccc(N2CCN(CCCc3nc4ccccc4o3)CC2)cc1 have recorded pKi that is 7 or more?
A: 0 (no)

Q: What about this compound? Cc1ccc(N2CCN(CCCSc3ccc(F)cc3)CC2)nc1
A: 0 (no)

Q: What about this compound? Clc1ccc(N2CCN(CCCCc3nc4ccccc4s3)CC2)cc1
A: 1 (yes)

Q: What about this compound? Clc1ccc(N2CCCN(CCCc3cc4ccccc4o3)CC2)cc1
A: 0 (no)

Q: What about this compound? Cc1ccc(N2CCN(CCCOc3ccc(F)cc3)CC2)nc1
A: 0 (no)

Q: What about this compound? FC(F)(F)c1ccc(OCCCN2CCN(c3ccccn3)CC2)cc1
A: 0 (no)
